assay: Plasma concentration in Sprague-Dawley rat at 10 mg/kg qd administered via oral gavage for 5 days measured 4 hrs post last dose; type: ADME, organism-based

cpd.smiles	concentration at 4 h (nM)
COc1cc(N2Cc3cn(-c4cccc(S(C)(=O)=O)c4)nc3[C@H]2C(C)(C)C)ccn1	1570

###

test: Plasma concentration in Sprague-Dawley rat at 1 mg/kg qd administered via oral gavage for 5 days measured 4 hrs post last dose; format: ADME, organism-based

cpd.smiles	concentration at 4 h (nM)
COc1cc(N2Cc3cn(-c4cccc(S(C)(=O)=O)c4)nc3[C@H]2C(C)(C)C)ccn1	187

###

experiment: Plasma concentration in Sprague-Dawley rat at 5 mg/kg, po measured after 4 hrs; type: ADME, organism-based

cpd.smiles	concentration at 4 h [nM]
Cc1nc(N2Cc3cn(-c4cccc(S(C)(=O)=O)c4)nc3[C@H]2C(C)C)cc(C(F)(F)F)n1	423
COc1cc(N2Cc3cn(-c4cccc(S(C)(=O)=O)c4)nc3[C@H]2C(C)(C)C)ccn1	1220
CC(C)[C@@H]1c2nn(-c3cccc(S(C)(=O)=O)c3)cc2CN1c1ccnc(C(F)(F)F)n1	1740
